Kindly supply the reported viability, T/C values for the records listed here.
system: 233499-124-R-J3-PDC spheroids with HUVEC/MSC, viability; experiment: Anticancer human tumor 233499-124-R-J3-PDC patient-derived colon adenocarcinoma cell line growth inhibition [PI3K]; settings: second compound 0.1 µM; first compound 0.00316 µM; hits give low values;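 also: spheroids exposed to agents for seven days before readout; percent viability relative to DMSO vehicle control taken as 100%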
Report the figure in % without appending any unit label.

Incoming: What value of measured viability, T/C is listed for Cn1ncnc1[C@H]1c2n[nH]c(=O)c3cc(F)cc(c23)N[C@@H]1c1ccc(F)cc1 + CC(Nc1ccc2c(c1)OCCn1cc(N3C(=O)OCC3C(F)F)nc1-2)C(N)=O ?
Outgoing: 83.3

Incoming: And what about the compound CC(C)n1nc(-c2ccc3oc(N)nc3c2)c2c(N)ncnc21 + CC(Nc1ncnc2nc[nH]c12)c1cc2cccc(Cl)c2c(=O)n1-c1ccccc1 ?
Outgoing: 97.8

Incoming: Param item: CC(C)n1nc(-c2ccc3oc(N)nc3c2)c2c(N)ncnc21 + Cc1nc(NC(=O)N2CCCC2C(N)=O)sc1-c1ccnc(C(C)(C)C(F)(F)F)c1
Outgoing: 54.8

Incoming: Try CC(=O)c1c(C)c2cnc(Nc3ccc(N4CCNCC4)cn3)nc2n(C2CCCC2)c1=O + COc1c(OCCCN2CCOCC2)ccc2c3n(c(=NC(=O)c4cnc(N)nc4)nc12)CCN3 next.
Outgoing: 63.7

Incoming: Follow-up item: CC(C)n1nc(-c2ccc3oc(N)nc3c2)c2c(N)ncnc21 + CC(Nc1ccc2c(c1)OCCn1cc(N3C(=O)OCC3C(F)F)nc1-2)C(N)=O
Outgoing: 66

Incoming: Next up: Cn1ncnc1[C@H]1c2n[nH]c(=O)c3cc(F)cc(c23)N[C@@H]1c1ccc(F)cc1 + Cc1nc(NC(=O)N2CCCC2C(N)=O)sc1-c1ccnc(C(C)(C)C(F)(F)F)c1
Outgoing: 85.2

Incoming: Similarly, CC(=O)c1c(C)c2cnc(Nc3ccc(N4CCNCC4)cn3)nc2n(C2CCCC2)c1=O + Cc1nc(NC(=O)N2CCCC2C(N)=O)sc1-c1ccnc(C(C)(C)C(F)(F)F)c1 ?
Outgoing: 74.7

Incoming: Same for Cn1ncnc1[C@H]1c2n[nH]c(=O)c3cc(F)cc(c23)N[C@@H]1c1ccc(F)cc1 + COc1c(OCCCN2CCOCC2)ccc2c3n(c(=NC(=O)c4cnc(N)nc4)nc12)CCN3
Outgoing: 75.9

Incoming: Now consider CCN1CCN(Cc2ccc(Nc3ncc(F)c(-c4cc(F)c5nc(C)n(C(C)C)c5c4)n3)nc2)CC1 + CC(Nc1ccc2c(c1)OCCn1cc(N3C(=O)OCC3C(F)F)nc1-2)C(N)=O .
Outgoing: 87.8

Incoming: Repeat for the following compound: Cn1ncnc1[C@H]1c2n[nH]c(=O)c3cc(F)cc(c23)N[C@@H]1c1ccc(F)cc1 + CC(Nc1ncnc2nc[nH]c12)c1cc2cccc(Cl)c2c(=O)n1-c1ccccc1
Outgoing: 70.9

Incoming: And for CC(C)n1nc(-c2ccc3oc(N)nc3c2)c2c(N)ncnc21 + COc1c(OCCCN2CCOCC2)ccc2c3n(c(=NC(=O)c4cnc(N)nc4)nc12)CCN3 ?
Outgoing: 56

Incoming: // query: CCN1CCN(Cc2ccc(Nc3ncc(F)c(-c4cc(F)c5nc(C)n(C(C)C)c5c4)n3)nc2)CC1 + CC(Nc1ncnc2nc[nH]c12)c1cc2cccc(Cl)c2c(=O)n1-c1ccccc1
Outgoing: 101

FYI, the data here is from PubChem BioAssay AID1963984.
